binders and their reported Ratio (EC50 of Epo / EC50 of the scFv-Fc), UT-7-luciferase assay
Subject Of Test: T1, huEpoR expressed on the cell surface (UT-7 cells) (human, UniProt P19235 25-508)
T1 sequence (looked up): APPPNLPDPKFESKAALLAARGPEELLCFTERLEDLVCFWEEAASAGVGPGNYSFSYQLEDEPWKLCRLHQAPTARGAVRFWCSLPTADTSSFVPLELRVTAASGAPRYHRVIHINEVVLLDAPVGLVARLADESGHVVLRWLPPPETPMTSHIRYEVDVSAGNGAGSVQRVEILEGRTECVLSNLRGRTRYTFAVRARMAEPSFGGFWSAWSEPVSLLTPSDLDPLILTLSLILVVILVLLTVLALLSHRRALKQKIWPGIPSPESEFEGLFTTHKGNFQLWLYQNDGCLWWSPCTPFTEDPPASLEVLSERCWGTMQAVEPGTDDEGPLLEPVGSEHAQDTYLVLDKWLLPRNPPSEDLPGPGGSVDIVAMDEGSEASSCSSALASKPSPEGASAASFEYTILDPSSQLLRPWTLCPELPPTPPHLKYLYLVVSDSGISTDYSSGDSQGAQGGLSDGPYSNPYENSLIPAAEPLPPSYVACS
Test Protocol: cell-based or functional assay
I only need the number, thanks.

Record excerpt, results attached:
| Binder | Quantitative Result |
| --- | --- |
| Mxb 13 (clone 13 scFv-Fc protein) (Fc fusion, Tested as scFv-Fc (maxibody) with an Fc derived from human IgG1) VH: QVQLQQSGGGVVQPGRSLRLSCAASGFTFSDYAMHWVRQAPGKGLEWVAVISNHGKSTYYADSVKGRFTISRDNSKHMLYLQMNSLRADDTALYYCARDIALAGDYWGQGTLVTVSA VL: DIQMTQSPSSLSASVGDRVTITCRASQSISSYLNWYQQLPGKVPKLLIYGASKLQSGVPSRFSGSGSGTDFTLTISSLQPEDFATYYCLQDYNYPLTFGPGTRLEIK | 0.002 |
| Mxb 15 (clone 15 scFv-Fc protein) (Fc fusion, Tested as scFv-Fc (maxibody) with an Fc derived from human IgG1) VH: QVQLQESGPGLVRPSGTLSLTCAVSGGSIGSSNWWSWVRQAPGKGLEWIGEISQSGSTNYNPSLKGRVTISLDRSRNQLSLKLSSVTAADTAVYYCARQLRSIDAFDIWGPGTTVTVSA VL: SYVLTQPPSVSVSPGLTATITCSGDKLGDKYASWYQQKPGQSPVLVIYQDRKRPSGIPERFSGSNSGNTATLTISGTQAVDEADYYCQAWDSDTSYVFGTGTQLTVL | 0.003 |

Now turn to the next binder.
**Query** Which Ratio (EC50 of Epo / EC50 of the scFv-Fc), UT-7-luciferase assay value belongs to Mxb 276 (clone 276 scFv-Fc protein) (Fc fusion) VH: EVQLVQSGGGLVQPGGSLRLSCAASGFTFSSYWMSWVRQAPGKGLEWVANIKPDGSEKYYVDSVKGRFTISRDNAKNSVYLQMNSLRAEDTAVYYCARVSRGGSYSDWGRGTMVTVSS VL: QSVLTQPPSASGSPGQSVTISCTGTSSDVGGFNYVSWYQKYPGKAPKLVIYEVSKRPSGVPDRFSGSKSGNTASLTVSGLQAEDEADYYCSSWAPGKNLFGGGTKLTVL ?
**Result** 0.03
